This collection of values is drawn from PubChem BioAssay AID651572.

Molecular target: ADP-ribosylation factor GTPase-activating protein 1 (Rattus norvegicus)
Experiment: blockers of ARFGAP1-stimulated ARF1 GTP hydrolysis – biochemical, fluorescence polarization, GDP tracer, primary screen (AID 651572)
Details: GDP FP detection, at 16.5 µM
About 950 (0.26%) of roughly 360,000 compounds were called active.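 Rule for the calls: active = inhibition above a per-plate limit, mean inhibition of low control wells plus 3 SD (cut at about 25% in these data); inactive = the rest.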 Many of the other results were omitted from the sample, so actives are more common in it than they were.
# valid calls are active, inactive; nothing else

Exercise: Would you mind telling me which call this test gave COC(=O)[C@]12C[C@H](CC(=O)NCCC(C)C)C(=O)N(CCc3ccc(OC)c(OC)c3)C1=C[C@H](C(C)(C)C)O[C@@H]2C ?
Solution: inactive

Exercise: Could you kindly confirm the outcome this assay logged for O=C(O)CCn1cc(/C=C/C(=O)c2ccc(Cl)cc2)c(-c2cccc(Br)c2)n1 ?
Solution: active

Exercise: Outcome? COCc1[nH]nc2c1C(c1ccccc1)N(c1ccccc1)C2=O (stereo unspecified)
Solution: inactive

Exercise: Test call for this compound, please: COC(=O)c1c(-c2ccc(OC)cc2)c2c(c3c4ccccc4n(S(=O)(=O)c4ccc(C)cc4)c13)C(=O)N(C)C2
Solution: inactive

Exercise: Field: outcome | Entry: CCOC(=O)/C=C/c1ccccc1O
Solution: inactive

Exercise: Recorded test outcome, item Cc1noc(C)c1NC(=O)Nc1ccc2c(c1)C(=O)N([C@H](C)CO)C[C@H](C)[C@H](CN(C)Cc1ccncc1)OCCCC[C@@H](C)O2
Solution: inactive

Exercise: What outcome does the record of this test show for CN1C(=O)C2CC(O)C(SC3CC4C(=O)N(C)C(=O)C4CC3O)CC2C1=O (stereo unspecified) ?
Solution: inactive

Exercise: Per the records of this test, what outcome belongs to Fc1ccc(-c2ccc(-c3nn4c(-c5ccco5)nnc4s3)o2)cc1 ?
Solution: inactive

Exercise: What did the test return for COC(=O)c1cc2c(c3c4cc(F)ccc4n(S(=O)(=O)c4ccccc4)c13)C(=O)N(Cc1ccccc1OC)C2 ?
Solution: inactive

Exercise: Answer briefly: the call reported for COc1ccccc1OCc1nnc(SCC(N)=O)n1-c1ccccc1 in this assay.
Solution: inactive

Exercise: Dear colleague, could you share the recorded outcome for O=C(Nc1ccccc1)c1cc2ccccc2[nH]1 when you have a moment?
Solution: inactive

Exercise: Returns: the outcome recorded for COc1ccccc1OCC(=O)OCn1c(SC)nnc(C)c1=O in this assay.
Solution: active

Exercise: So what was the verdict on COCCNC(=S)N(C)[C@H]1C[C@H]2c3[nH]c4ccccc4c3CCN2C[C@H]1[C@H](C)O in this test?
Solution: inactive

Exercise: Which outcome was assigned to COc1ccc(CC(N)c2csc(NC(=O)Nc3ccc(C(C)C)cc3)n2)cc1 (stereo unspecified) in this test?
Solution: inactive

Exercise: # outcome recorded in this test, key = COC(=O)c1c(-c2ccc(OC)cc2)c2c(c3c4cc(OC)ccc4n(S(=O)(=O)c4ccc(F)cc4)c13)C(=O)N(C)C2
Solution: inactive

Exercise: Dear colleague, could you share the recorded outcome for Cc1cc2c(nc1C)CCCN2C when you have a moment?
Solution: inactive

Exercise: What did this assay record as the result for COC(=O)CCc1sc(Nc2ccc(Br)cc2)nc1-c1ccc(OC)cc1 ?
Solution: inactive

Exercise: Which result was noted for this compound in the test: COc1ccc(-c2csc(Nc3ccc(O)cc3)n2)cc1
Solution: active

Exercise: Name the outcome recorded for CC(C)(C)C(c1nc2ccccc2[nH]1)n1c(Cc2csc3ccccc23)nc2ccccc21 (stereo unspecified) in the assay.
Solution: inactive

Exercise: In this assay, the call recorded for O=C(C(=O)N1CCC(CNS(=O)(=O)Cc2ccccc2)CC1)c1cc2ccccc2o1 was what?
Solution: inactive

Exercise: Returns: the outcome recorded for CN(C)CCNC(=O)c1cccc(-c2cnc3c(NC=O)cc(-c4cccc(C(F)(F)F)c4)cn23)c1 in this assay.
Solution: inactive

Exercise: Each compound tested received a call. Report the one for Cc1ccc2nc(SCC(=O)N3CC(C)OC(C)C3)nc(=O)n2c1 (stereo unspecified) .
Solution: active

Exercise: Kindly provide the recorded test outcome for the following compound: CCCCCCCCN1C(=O)[C@@H](CC(=O)NCc2ccc(C)o2)C[C@@]2(C(=O)OC)C1=C[C@H](C(C)(C)C)O[C@@H]2C
Solution: inactive

Exercise: Recorded test outcome, item NC(c1csc(NC(=O)Nc2cccc(C(F)(F)F)c2)n1)C1CCCCC1 (stereo unspecified)
Solution: inactive

Exercise: Which outcome did this test record for the compound O=C(O)CSCc1ccc(C(=O)O)o1 ?
Solution: active

Exercise: Record lookup: outcome of this test for O=C(N[C@H](Cc1ccccc1)C(=O)N1CCCN(Cc2cccs2)CC1)[C@H]1O[C@@H](n2ccc(=O)[nH]c2=O)[C@H](O)[C@@H]1O ?
Solution: inactive

Exercise: State the result this test recorded for Cc1[nH]nc2c1C(c1ccc(Br)cc1)NC2=O (stereo unspecified) .
Solution: inactive

Exercise: Recorded test call requested for Cc1ccc2nc(SCC(=O)N3CCN(c4ccccc4)CC3)nc(=O)n2c1
Solution: inactive

Exercise: What did this assay record as the result for CC(=O)c1cccc(-c2cnc3c(NC=O)cc(-c4ccccc4Oc4ccccc4)cn23)c1 ?
Solution: inactive

Exercise: Dear all, I need the recorded test outcome for Oc1cccc2ccc(/C=C/c3ccc(Br)s3)nc12 , thank you.
Solution: inactive

Exercise: Please state the recorded outcome for this compound: COc1ccc(C(N)c2csc(NC(=O)Nc3cccc(C(F)(F)F)c3)n2)cc1 (stereo unspecified)
Solution: active
